Origin of values: patent EP0555351B1

- experimental target: acyl-CoA: cholesterol acyltransferase (ACAT)
- test method notes: in vitro ACAT inhibition test (IAI): formation of radiolabeled cholesterol oleate from radiolabeled oleic acid in intestinal microsomes
- Assay type: biochemical
- measurement parameters: tissue preparation containing rabbit intestinal microsomes; concentration required to inhibit the activity of the enzyme by 50%; monosodium salt; read-out: IAI IC₅₀
pIC50: −log10 of the molar value. Where a name gives a salt, the structure may show the parent alone.

| molecule | pIC50 |
| --- | --- |
| CC(C)c1cccc(C(C)C)c1OC(=O)NS(=O)(=O)Oc1c(C(C)C)cccc1C(C)C [Example 28, monosodium salt] | 5.28 |

* * *

Reported log10 of IC50 values for the following compounds.
- experimental target: acyl-CoA: cholesterol acyltransferase (ACAT)
- test method notes: in vitro ACAT inhibition test (IAI): formation of radiolabeled cholesterol oleate from radiolabeled oleic acid in intestinal microsomes
- Format: biochemical
- measurement parameters: tissue preparation containing rabbit intestinal microsomes; concentration required to inhibit the activity of the enzyme by 50%; read-out: IAI IC₅₀
reported endpoint: log10 of IC50 (log10 of the value in µM)

| compound | log10 of IC50 |
| --- | --- |
| CCCCCCCCCCCCOC(=O)NS(=O)(=O)Oc1c(C(C)C)cccc1C(C)C [Example 5] | 1.11 |
| CC(C)c1cccc(C(C)C)c1OC(=O)N(C)S(=O)(=O)Oc1c(C(C)C)cccc1C(C)C [Example 31] | 1.80 |
| CC(C)c1cccc(C(C)C)c1OC(=O)NS(=O)(=O)Oc1ccc(F)cc1F [Example 20] | 1.70 |
| CCCCCCCCCCCCOS(=O)(=O)NC(=O)Oc1c(C(C)(C)C)cc(C)cc1C(C)(C)C [Example 4] | 1.72 |
| CC(C)c1cccc(C(C)C)c1OC(=O)NS(=O)(=O)Oc1c(F)cccc1F [Example 22] | 1.58 |
| CCCCCCCCCCCCOS(=O)(=O)NC(=O)Oc1c(C(C)C)cccc1C(C)C [Example 8] | 1.11 |
| CC(C)c1cccc(C(C)C)c1OC(=O)NS(=O)(=O)Oc1c(C(C)C)cccc1C(C)C [Example 27] | 0.52 |
